# System: Escherichia coli TOP10
# method-notes: shrunken log2 fold change of peptide-encoding DNA abundance (4.5 h post-induction vs induction); higher = less antimicrobial activity (less host growth inhibition)
# measurement-context: time post-induction: 4.5 h; library: site-saturation at positions 5, 18, 19, 20
The following sequences are listed with their measured shrunken log2 fold change values.
metric-name: shrunken log2 fold change

sequence-code: RRIRHRPPRLPRPRPRPHMLPRP
target-desc: Escherichia coli TOP10
reported-result: -0.0874
--
sequence-code: RRIRWRPPRLPRPRPRPDQHPRP
target-desc: Escherichia coli TOP10
reported-result: -0.00431
--
sequence-code: RRIRMRPPRLPRPRPRPKFVPRP
target-desc: Escherichia coli TOP10
reported-result: 0.0832
--
sequence-code: RRIRDRPPRLPRPRPRPFSWPRP
target-desc: Escherichia coli TOP10
reported-result: 0.198
--
sequence-code: RRIRGRPPRLPRPRPRPMKMPRP
target-desc: Escherichia coli TOP10
reported-result: 0.00988
--
sequence-code: RRIRGRPPRLPRPRPRPNTLPRP
target-desc: Escherichia coli TOP10
reported-result: -0.145
--
sequence-code: RRIRHRPPRLPRPRPRPVTEPRP
target-desc: Escherichia coli TOP10
reported-result: -0.0954
--
sequence-code: RRIRVRPPRLPRPRPRPASRPRP
target-desc: Escherichia coli TOP10;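 also: peptides expressed intracellularly from a pBAD plasmid library in pooled LB shake-flask culture, induced with 0.3% L-arabinose, DNA abundance read by NGS, three biological replicates, DESeq2 with apeglm shrinkage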
reported-result: 0.275
